Molecular target: Thymidylate synthase (Enterococcus faecalis (strain ATCC 700802 / V583), UniProt Q834R3)
Sequence (Q834R3 whole entry): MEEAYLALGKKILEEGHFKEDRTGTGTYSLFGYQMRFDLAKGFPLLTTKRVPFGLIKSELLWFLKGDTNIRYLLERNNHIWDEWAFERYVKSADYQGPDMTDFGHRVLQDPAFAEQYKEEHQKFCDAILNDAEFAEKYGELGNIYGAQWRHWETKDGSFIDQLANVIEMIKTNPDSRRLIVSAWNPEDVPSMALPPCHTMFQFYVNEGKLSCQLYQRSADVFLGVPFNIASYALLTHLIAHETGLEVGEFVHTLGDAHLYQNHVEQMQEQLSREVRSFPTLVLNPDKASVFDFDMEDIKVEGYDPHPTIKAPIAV
Assay: Inhibition of Enterococcus faecalis thymidylate synthase using N5,N10-methylene tetrahydrofolate by chromogenic assay
ATTRIBUTE_MEASURED: Ki (µM)

Here are 2 compounds together with their reported answers.
# input Fill blank: measured Ki of the compound Cc1cccc2c1C(=O)N(c1nccs1)C2=O is ____.
# output 11

# input For the compound Cc1cccc2c1C(=O)N(c1ccnc(Cl)c1)C2=O , what Ki is on record?
# output 7

[A] Cc1cccc2c1C(=O)N(c1ccc(C#N)cc1)C2=O
[B] Cc1cccc2c1C(=O)N(c1ccc(-n3ccnc3)cc1)C2=O
# input Identify the item whose Ki is the smaller number: A or B // respond with label for picked entry
# output A

Data provenance is ChEMBL document CHEMBL1811787.
